System: HOP-92
Assay: NCI tumour cell line growth inhibition, 48 h
Activity calls are given as the source filed them. Rule as the data show it: active = GI50 up to about 1.1 µM and inactive = higher.
Lab note: assign the record to one of 1 (active), -1 (inactive)

Example cases with answers are listed next.
CN(CCc1ccccn1)c1ccc2c(c1)C(=O)c1ccccc1-2 : -1
Cc1ccc(S(=O)(=O)N/N=C/c2oc(-c3ccccc3Cl)c(-c3ccccc3Cl)c2[N+](=O)[O-])cc1 : -1
CCCCCn1cnc2c1S(=O)(=O)N(C)C(NC(=O)c1ccccc1)=N2 : -1
COc1ccc(CNc2nc(NCc3ccc(OC)c(OC)c3)nc(NC3CCCCC3)n2)cc1 : -1
CN1CCc2nc(N)nc(-c3nc(N)nc4c3CN(C)CC4)c2C1 : -1
Clc1ccc(CCn2cncn2)c(Cl)c1 : -1
COc1cc(OC)cc(-c2nc(O)c3ccccc3n2)c1 : -1
COc1cc([C@@H]2c3cc4c(cc3[C@@H](NC(=O)c3cccc([N+](=O)[O-])c3)C3COC(=O)[C@@H]32)OCO4)cc(OC)c1O (some centres undefined) : 1
O=C(Nc1ccc(N=C=S)cc1Cl)c1cc(Br)cc(Br)c1O : -1
CC1(C)C=[N+]([O-])C(C)(C)N1 : -1

Q: Short answer needed: outcome of this test for COc1cc(C2C(Cl)C(=O)N2NC(=O)c2ccccc2O)cc(OC)c1OC (centres undefined) ?
Result: -1

Q: Short answer needed: outcome of this test for CCOP(=O)(OCC)/C(C#N)=C(\C)c1ccco1 ?
Result: -1

Q: Short answer needed: outcome of this test for COC(=O)C1=C(C)NC2=C(C(=O)c3ccccc32)C1c1cn(-c2ccccc2)nc1-c1ccccc1 (centres undefined) ?
Result: -1

Q: Short answer needed: outcome of this test for CCOC(=O)c1cccc(NC(=O)CBr)c1 ?
Result: -1

Q: Short answer needed: outcome of this test for CN(CCc1ccccn1)c1ccc2c(c1)Cc1ccccc1-2 ?
Result: -1

Q: Short answer needed: outcome of this test for CC(C)(C)C(=O)OC(N)/C=C/c1ccccc1 (centres undefined) ?
Result: -1

Q: Short answer needed: outcome of this test for CCOCc1cc(=O)c2c(O)cc3c(c2o1)CCC(C)(C)O3 ?
Result: -1

Q: Short answer needed: outcome of this test for CCOC(=O)c1cc(NC(=O)N(CCC#N)CCN(C(=O)N[C@@H](Cc2ccccc2)C(=O)N[C@@H](CC(C)C)C(=O)NC)c2ccccc2)ccc1OC ?
Result: -1

Q: Short answer needed: outcome of this test for O=C(c1ccccc1)c1ccc2[nH]c(-c3c(Cl)c(Cl)c(Cl)c(Cl)c3C(=O)N/N=C/c3ccc(Cl)cc3)nc2c1 ?
Result: -1

Q: Short answer needed: outcome of this test for CC1CNC(c2ccc(COc3ccc(C4=NC(C)CN4)cc3)cc2)=N1 (centres undefined) ?
Result: -1

Q: Short answer needed: outcome of this test for CN(C)[C@H]1CC[C@H]2[C@@H]3CCC4C[C@@H](NC(=O)NC(Cc5ccccc5)c5nccs5)CC[C@]4(C)[C@H]3CC[C@]12C (some centres undefined) ?
Result: -1

Q: Short answer needed: outcome of this test for CC(=O)Oc1ccc2c(c1OC(C)=O)CCC1C2=CC[C@]2(C)C(=O)CCC12 (some centres undefined) ?
Result: -1

###

Test system: T47D
Test: NCI tumour cell line growth inhibition, 48 h
Active and inactive are the calls of the source. Cut-off read from the data, not from the text of the source: active = GI50 up to about 1.1 µM and inactive = higher.
readout type: GI50

# example entries with known answers
O=C1/C(=C/c2ccc([N+](=O)[O-])cc2)Oc2cc(O)ccc21 : 28.6 µM (inactive)
CN(C)CCCN1c2ccccc2Sc2ccc3ccccc3c21 : 2.05 µM (inactive)
CCCCOC(=O)C(O)Cc1ccoc1 (stereo unspecified) : > 100 µM (inactive)
O=C(O)C[n+]1cn(NC(=O)Cc2ccccc2)cn1 : > 10 µM (inactive)
O=C(NC(=O)c1c(F)cccc1F)Nc1cccc(Oc2ncc(Cl)cn2)c1 : > 35.2 µM (inactive)

Lab book: GI50 of O=C(O)c1c(CC(Cc2ccc3c(c2)CCCC3)C(=O)O)ccc2c1CCCC2 (stereo unspecified) noted as > 100 µM (inactive)

Lab book: GI50 of CSc1ncnc2c1cnn2Cc1cn(CCCCO)nn1 noted as > 100 µM (inactive)

Lab book: GI50 of Cc1ccc(NCCN(C)C)c2c(=O)c3cc(O)ccc3sc12 noted as 7.91 µM (inactive)

Lab book: GI50 of CCOC(=O)c1cn(C)nc1N/C(C)=C\C(=O)c1ccccc1 noted as > 100 µM (inactive)

Lab book: GI50 of CC1(C)[C@@H]2C[C@H]1c1cnc(-c3ccccn3)cc1C2CCCCC[C@@H]1c2cc(-c3ccccn3)ncc2[C@@H]2C[C@H]1C2(C)C (stereo partly specified) noted as 1.69 µM (inactive)

Lab book: GI50 of O=C1OC(CN2CCN(c3ccccc3)CC2)CN1C(=S)Nc1ccccc1 (stereo unspecified) noted as > 100 µM (inactive)

Lab book: GI50 of CC(=O)OC12c3ccccc3C(c3ccccc31)C1C(=O)N(c3ccccn3)C(=O)C12 (stereo unspecified) noted as 53.3 µM (inactive)

Lab book: GI50 of CSC1=N/C(=C\c2ccco2)C(=O)N1CN1CCOCC1 noted as 48.1 µM (inactive)

Lab book: GI50 of O=C(c1ccc(Cl)cc1)c1cnc(Nc2ccccc2Cl)s1 noted as 19.3 µM (inactive)

Lab book: GI50 of CCOC(=O)c1cc(C)nc2c1c(=O)n(-c1ccccc1)c(=O)n2CCCCN1CCN(c2ccccc2)CC1 noted as 24.3 µM (inactive)

Lab book: GI50 of CCCCCC(=O)Nc1[nH]nnc1C(N)=O noted as > 100 µM (inactive)

###

Test system: SK-MEL-28
Experiment: NCI tumour cell line growth inhibition, 48 h
The source made the active and inactive calls. No stated cut-off is given here; in the data, active = GI50 up to about 1.1 µM and inactive = higher.
Lab note: assign the record to one of active, inactive

C[C@H](C(=O)O)C(=O)NC(=O)N(Cc1ccccc1)N=O : inactive
CC1(C)O[C@@H](CP(c2ccc3ccccc3c2)c2ccc3ccccc3c2)[C@H](CP(c2ccc3ccccc3c2)c2ccc3ccccc3c2)O1 : inactive
Cc1cc(C(=O)CSC(=S)SC(C)(C)C)ccc1Cl : inactive

Q: Short answer needed: outcome of this test for COC(=O)C(=O)C(C(=O)Nc1cccc(C)c1C)C1Sc2ccccc2NC1=O (stereo unspecified) ?
Result: inactive

Q: Short answer needed: outcome of this test for N#Cc1c(NC(=O)CCC(=O)O)ccc2ccccc12 ?
Result: inactive

Q: Short answer needed: outcome of this test for CC(C)(C)C(=O)OC(N)/C=C/c1ccccc1 (stereo unspecified) ?
Result: inactive

Q: Short answer needed: outcome of this test for O=C1C=CC2(C=C1)O[C@H](CCc1ccccc1)[C@@H](CCc1ccccc1)O2 ?
Result: inactive

###

Tested on: CAKI-1
Test: NCI tumour cell line growth inhibition, 48 h
Active and inactive are the calls of the source. Rule as the data show it: active = GI50 up to about 1.1 µM and inactive = higher.
Lab note: assign the record to one of YES (active), NO (inactive)

Example cases with answers are listed next.
CCC(=O)c1c(NOC2OCC(OC(C)=O)C(OC(C)=O)C2OC(C)=O)nc(OC)n(C)c1=O (stereo unspecified) : NO
Cc1cc(C(=O)CSC(=S)SC(C)(C)C)ccc1Cl : NO
COC(=O)C(=O)C(C(=O)Nc1cccc(C)c1C)C1Sc2ccccc2NC1=O (stereo unspecified) : NO
CC(C)C(=O)/C=C/S/C=C/C(=O)C(C)C : NO

Q: Short answer needed: outcome of this test for Cc1nc(-n2nc(-c3ccccc3)cc2-c2ccccc2)sc1C(=O)/C=C/c1ccc(Cl)cc1 ?
Result: NO

Q: Short answer needed: outcome of this test for CN(C)CCNc1ccc2ncnc3c2c1C(=O)c1ccccc1-3 ?
Result: YES

Q: Short answer needed: outcome of this test for [N-]=[N+]=NC1C2CC3CC(C2)CC1C3 (stereo unspecified) ?
Result: NO

Q: Short answer needed: outcome of this test for COC(=O)C1CCC2(C)[C@H](CCC3O[C@]32C)[C@@]1(C)CC(=O)c1ccoc1 (stereo partly specified) ?
Result: NO

Q: Short answer needed: outcome of this test for O=C(c1ccc(O)c([N+](=O)[O-])c1)c1ccc(O)c([N+](=O)[O-])c1 ?
Result: NO

Q: Short answer needed: outcome of this test for O=C(O)/C(Cl)=C(/Cl)C(=O)Nc1cccc(Cl)c1 ?
Result: NO

Q: Short answer needed: outcome of this test for CC(C)C[C@H](NC(=O)[C@H](Cc1ccccc1)NC(=O)c1cnccn1)B(O)O [BORTEZOMIB] ?
Result: YES

###

Test system: SW-620
Test: NCI tumour cell line growth inhibition, 48 h
The source made the active and inactive calls. No stated cut-off is given here; in the data, active = GI50 up to about 1.1 µM and inactive = higher.
Quick reference for GI50 among some compounds

# example entries with known answers
O=C(c1ccc(O)c([N+](=O)[O-])c1)c1ccc(O)c([N+](=O)[O-])c1 : 55.6 µM (inactive)
O=C1OC(CN2CCN(c3ccccc3)CC2)CN1C(=S)Nc1ccccc1 (stereo not given) : > 100 µM (inactive)
CC1CNC(c2ccc(COc3ccc(C4=NC(C)CN4)cc3)cc2)=N1 (stereo not given) : 67.9 µM (inactive)
O=C1C=CC2(C=C1)O[C@H](CCc1ccccc1)[C@@H](CCc1ccccc1)O2 : > 100 µM (inactive)
C[C@@H](CN1CC(=O)NC(=O)C1)N1CC(=O)NC(=O)C1 [DEXRAZOXANE] : 57.5 µM (inactive)

Lab book: GI50 of O=[N+]([O-])/C(C(Cl)=C(Cl)Cl)=C(/Nc1ccccc1)SCc1ccccc1 noted as 26.7 µM (inactive)

Lab book: GI50 of Cn1ccnc1CCc1ccc(F)cc1F noted as > 100 µM (inactive)

Lab book: GI50 of Cc1ccc(S(=O)(=O)NC(=O)NCC(=O)NCC(=O)O)cc1 noted as > 100 µM (inactive)

Lab book: GI50 of CCOC(=O)C(=O)C1C(=O)Nc2ccccc21 (stereo not given) noted as > 100 µM (inactive)

Lab book: GI50 of CC1CC=CC(O)C1 (stereo not given) noted as > 100 µM (inactive)

Lab book: GI50 of CO[C@H]1C[C@H](n2cc(C)c(=O)[nH]c2=O)O[C@@H]1CO noted as > 100 µM (inactive)

Lab book: GI50 of c1ccc(Nc2nnc(CCCCCCCCc3nnc(Nc4ccccc4)o3)o2)cc1 noted as > 100 µM (inactive)

Lab book: GI50 of C[n+]1c2ccc(Cl)cc2nc2cc(-c3ccccc3)ccc21 noted as 4.7 µM (inactive)

Lab book: GI50 of Oc1cc(-c2ccccn2)nc2ccc(Cl)cc12 noted as 19.8 µM (inactive)

Lab book: GI50 of CC(=O)N(C(=O)CC(=O)N1N=C(C)C(/N=N/c2cccc([N+](=O)[O-])c2)C1=O)c1ccc(Cl)cc1 (stereo not given) noted as > 10 µM (inactive)
